Tested on: Enterococcus sp.
Experiment: In vitro antibacterial evaluation: minimum inhibitory concentration (MIC), broth dilution method
Type: cell-based
Conditions: Enterococcus faecalis (GC 6189); 18 hours at 35° C.
quantity: MIC Enterococcus faecalis (GC 6189) (µg/mL)
Answers are plain numbers, in µg/mL.

[
  {
    "molecule": "CC(c1ccc(Cl)cc1)C1NC(=O)CNC(=O)C(CO)NC(=O)C(C(O)C2CNC(=N)N2C2OC(CO)C(O)C(O)C2O)NC(=O)C(C(O)C2CNC(=N)N2)NC(=O)C(Cc2ccc(OC3OC(CO)C(OC4OC5COC(C6CCCCC6)OC5C(O)C4O)C(O)C3O)cc2)NC1=O (stereo not shown) [Example 193]",
    "units-symbol": "µg/mL",
    "MIC Enterococcus faecalis (GC 6189)": 0.5
  },
  {
    "molecule": "CC(C1CCCCC1)C1NC(=O)CNC(=O)C(CO)NC(=O)C(C(O)C2CNC(=N)N2C2OC(CO)C(O)C(O)C2O)NC(=O)C(C(O)C2CNC(=N)N2)NC(=O)C(Cc2ccc(OC3OC(CO)C(OC4OC5COC(c6ccccc6)OC5C(O)C4O)C(O)C3O)cc2)NC1=O (stereo not shown) [Example 201]",
    "units-symbol": "µg/mL",
    "MIC Enterococcus faecalis (GC 6189)": 1
  },
  {
    "molecule": "CC(c1ccccc1)C1NC(=O)CNC(=O)C(CO)NC(=O)C(C(O)C2CNC(=N)N2C2OC(CO)C(O)C(O)C2O)NC(=O)C(C(O)C2CNC(=N)N2)NC(=O)C(Cc2ccc(OC3OC(CO)C(OC4OC5COC6(CCSCC6)OC5C(O)C4O)C(O)C3O)cc2)NC1=O (stereo not shown) [Example 217]",
    "units-symbol": "µg/mL",
    "MIC Enterococcus faecalis (GC 6189)": 16
  }
]

# return MIC Enterococcus faecalis (GC 6189) for each item in the list
1. CC(c1ccccc1)C1NC(=O)CNC(=O)C(CO)NC(=O)C(C(O)C2CN(Cc3ccc(C(F)(F)F)cc3)C(=N)N2C2OC(CO)C(O)C(O)C2O)NC(=O)C(C(O)C2CNC(=N)N2)NC(=O)C(Cc2ccc(OC3OC(CO)C(OC4OC5COC6(OC5C(O)C4O)C4CC5CC(C4)CC6C5)C(O)C3O)cc2)NC1=O (stereo not shown) [Example 226]
2. CC(c1ccccc1)C1NC(=O)CNC(=O)C(CO)NC(=O)C(C(O)C2CNC(=N)N2C2OC(CO)C(O)C(O)C2O)NC(=O)C(C(O)C2CNC(=N)N2)NC(=O)C(Cc2ccc(OC3OC(CO)C(OC4OC(CO)C(OCC=C(c5ccccc5)c5ccccc5)C(O)C4O)C(O)C3O)cc2)NC1=O (stereo not shown) [Example 241a]

32
2

====

Tested on: Enterococcus sp.
Assay: In vitro antibacterial evaluation: minimum inhibitory concentration (MIC), broth dilution method
Assay type: cell-based
Settings: strain ATCC 29212
Source text: […]
Give MIC Enterococcus faecalis (ATCC 29212) for every item shown.
Answers are plain numbers, in µg/mL.

[
  {
    "compound": "CCCCCCCN1CC(C(O)C2NC(=O)C(C(O)C3CNC(=N)N3)NC(=O)C(Cc3ccc(OC4OC(CO)C(OC5OC6COC7(OC6C(O)C5O)C5CC6CC(C5)CC7C6)C(O)C4O)cc3)NC(=O)C(C(C)c3ccccc3)NC(=O)CNC(=O)C(CO)NC2=O)N(C2OC(CO)C(O)C(O)C2O)C1=N (stereo not drawn)",
    "MIC Enterococcus faecalis (ATCC 29212) (µg/mL)": 4
  }
]

Entry CC(c1ccccc1)C1NC(=O)CNC(=O)C(CO)NC(=O)C(C(O)C2CNC(=N)N2C2OC(CO)C(O)C(O)C2O)NC(=O)C(C(O)C2CNC(=N)N2)NC(=O)C(Cc2ccc(OC3OC(CO)C(OC4OC5COC(c6ccc(Oc7ccc(C(C)(C)C)cc7)cc6)OC5C(O)C4O)C(O)C3O)cc2)NC1=O (stereo not drawn) has what MIC Enterococcus faecalis (ATCC 29212)?
2

====

Test system: Streptococcus sp.
Assay: In vitro antibacterial evaluation: minimum inhibitory concentration (MIC), broth dilution method
Format: cell-based
Settings: Streptococcus pneumoniae (ATCC 6301); broth dilution, 18 hours at 35° C.
Numbered stars: 1 amine (or outer) side, 2 acyl side, 3 side chain; on linkers, the order of the positions; unused ones are H or OH. Square brackets hold non-standard residues; d marks the D form. Peptide text beside a SMILES is read from it. * marks the point of attachment. ξ: configuration not given here. X1 = N=C1NCC(C(O)C(N[*:1])C(=O)[*:2])N1C1OC(CO)C(O)C(O)C1O; ξEnduracididine(βξ-OH,4'ξ) = N=C1NCC(C(O)C(N)C(=O)O)N1; X2 = OCC1OC(OC2C(CO)OC(*)C(O)C2O)C(O)C(O)C1O; ξCha(3ξ-Me) = CC(C1CCCCC1)C(N)C(=O)O
quantity: MIC Streptococcus pneumoniae (ATCC 6301) (µg/mL)
Numbers only, in µg/mL.

Entry CC(C1CCCCC1)C1NC(=O)CNC(=O)C(CO)NC(=O)C(C(O)C2CNC(=N)N2C2OC(CO)C(O)C(O)C2O)NC(=O)C(C(O)C2CNC(=N)N2)NC(=O)C(Cc2ccc(OC3OC(CO)C(OC4OC(CO)C(O)C(O)C4O)C(O)C3O)cc2)NC1=O (stereo not drawn) [Example 51] (cyclo(G[ξCha(3ξ-Me)]Y(X2)[ξEnduracididine(βξ-OH,4'ξ)][X1]S); configuration not given here) has what MIC Streptococcus pneumoniae (ATCC 6301)?
8

====

Test system: Streptococcus sp.
Experiment: In vitro antibacterial evaluation: minimum inhibitory concentration (MIC), broth dilution method
Assay type: cell-based
Conditions: broth dilution, 18 hours at 35° C.
Give MIC Streptococcus pneumoniae (GC 4565) for every item shown.
Give bare numbers, in µg/mL.

[
  {
    "compound": "CC(c1ccccc1)C1NC(=O)CNC(=O)C(CO)NC(=O)C(C(O)C2CNC(=N)N2C2OC(CO)C(O)C(O)C2O)NC(=O)C(C(O)C2CNC(=N)N2)NC(=O)C(Cc2ccc3oc(SCC(=O)c4ccc(Cl)cc4)nc3c2)NC1=O (centres unmarked) [Example 49]",
    "assayed-system": "Streptococcus sp.",
    "quantity": "MIC Streptococcus pneumoniae (GC 4565)",
    "value": 8
  }
]

# evaluate next
Entry CC(c1ccccc1)C1NC(=O)CNC(=O)C(CO)NC(=O)C(C(O)C2CNC(=N)N2C2OC(CO)C(O)C(O)C2O)NC(=O)C(C(O)C2CNC(=N)N2)NC(=O)C(Cc2ccc3oc(SCC(=O)c4ccccc4)nc3c2)NC1=O (centres unmarked) [Example 48] has what MIC Streptococcus pneumoniae (GC 4565)?
32

====

Tested on: Streptococcus sp.
Assay: In vitro antibacterial evaluation: minimum inhibitory concentration (MIC), broth dilution method
Format: cell-based
Details: Streptococcus pneumoniae (GC 1894); 18 hours at 35° C.
Give MIC Streptococcus pneumoniae (GC 1894) for every item shown.

[
  {
    "molecule": "N=C1NCC(C(O)C2NC(=O)C(Cc3ccc(OC4OC(CO)C(OC5OC6COC(CCc7ccccc7)OC6C(O)C5O)C(O)C4O)cc3)NC(=O)C(CC3CCCCC3)NC(=O)CNC(=O)C(CO)NC(=O)C(C(O)C3CNC(=N)N3C3OC(CO)C(O)C(O)C3O)NC2=O)N1 (stereo not drawn)",
    "assayed-system": "Streptococcus sp.",
    "MIC Streptococcus pneumoniae (GC 1894)": "<0.12 µg/mL"
  },
  {
    "molecule": "CCCOc1ccc(COCC2OC(OC3C(CO)OC(Oc4ccc(CC5NC(=O)C(C(C)c6ccccc6)NC(=O)CNC(=O)C(CO)NC(=O)C(C(O)C6CNC(=N)N6C6OC(CO)C(O)C(O)C6O)NC(=O)C(C(O)C6CNC(=N)N6)NC5=O)cc4)C(O)C3O)C(O)C(O)C2O)cc1 (stereo not drawn)",
    "assayed-system": "Streptococcus sp.",
    "MIC Streptococcus pneumoniae (GC 1894)": "<0.06 µg/mL"
  },
  {
    "molecule": "CC(c1ccccc1)C1NC(=O)CNC(=O)C(CO)NC(=O)C(C(O)C2CNC(=N)N2C2OC(CO)C(O)C(O)C2O)NC(=O)C(C(O)C2CNC(=N)N2)NC(=O)C(Cc2ccc(OC3OC(CO)C(OC4OC(COCC=Cc5ccccc5)C(O)C(O)C4O)C(O)C3O)cc2)NC1=O (stereo not drawn)",
    "assayed-system": "Streptococcus sp.",
    "MIC Streptococcus pneumoniae (GC 1894)": "0.5 µg/mL"
  }
]

# return MIC Streptococcus pneumoniae (GC 1894) for each item in the list
1. N=C1NCC(C(O)C2NC(=O)C(CC3CCC(OC4OC(CO)C(OC5OC6COC7(OC6C(O)C5O)C5CC6CC(C5)CC7C6)C(O)C4O)CC3)NC(=O)C(CC3CCCCC3)NC(=O)CNC(=O)C(CO)NC(=O)C(C(O)C3CNC(=N)N3C3OC(CO)C(O)C(O)C3O)NC2=O)N1 (stereo not drawn)
2. N=C1NCC(C(O)C2NC(=O)C(Cc3ccc(OC4OC(CO)C(OC5OC6COC(Cc7ccccc7)OC6C(O)C5O)C(O)C4O)cc3)NC(=O)C(CC3CCCCC3)NC(=O)CNC(=O)C(CO)NC(=O)C(C(O)C3CNC(=N)N3C3OC(CO)C(O)C(O)C3O)NC2=O)N1 (stereo not drawn)
3. CC(c1ccccc1)C1NC(=O)CNC(=O)C(CO)NC(=O)C(C(O)C2CNC(=N)N2C2OC(CO)C(O)C(O)C2O)NC(=O)C(C(O)C2CNC(=N)N2)NC(=O)C(Cc2ccc(OC3OC(CO)C(OC4OC5COC6(OC5C(O)C4O)C(C)CCCC6C)C(O)C3O)cc2)NC1=O (stereo not drawn)

["32 µg/mL", "<0.06 µg/mL", "<0.12 µg/mL"]
